# Tested system: Muscarine M1 (GPCR-A-MA-ACH M1) (Homo sapiens, UniProt P11229)
# Construct: expressed in transfected cells; host or cells: CHO cells
# Sequence (P11229 whole entry): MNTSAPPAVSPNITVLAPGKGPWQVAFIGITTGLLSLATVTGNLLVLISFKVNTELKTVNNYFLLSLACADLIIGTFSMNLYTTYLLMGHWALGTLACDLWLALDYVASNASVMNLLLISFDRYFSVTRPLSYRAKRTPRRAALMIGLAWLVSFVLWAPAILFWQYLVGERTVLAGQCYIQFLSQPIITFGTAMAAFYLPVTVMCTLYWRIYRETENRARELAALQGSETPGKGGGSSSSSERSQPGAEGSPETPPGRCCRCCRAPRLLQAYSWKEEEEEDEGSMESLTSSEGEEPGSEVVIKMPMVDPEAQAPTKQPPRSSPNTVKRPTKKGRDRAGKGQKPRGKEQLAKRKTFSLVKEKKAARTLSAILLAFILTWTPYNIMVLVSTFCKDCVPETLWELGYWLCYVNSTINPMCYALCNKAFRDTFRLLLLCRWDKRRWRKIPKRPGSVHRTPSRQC
# Assay summary: Muscarine M1 receptor binding, 3H-Pirenzepine
# Settings: human M1, CHO cells, ligand 2 nM, 60 min/22° C., read-out: RB Musc. M1 3H-Pirenzepine pKi (converted)
Entries annotated with measured Ki
Give just the numeric value; nM need not be written.

// query Ki value for entry CCCCCSc1c[nH]nc1[C@@H]1CN2CCC[C@H]1C2 [Compound 60A]
398

Next compound: CCSc1c[nH]nc1C1CN2CCC1CC2 (stereo not shown) [Compound 49D]
794

Next compound: CCCCCC#Cc1conc1C1=CCCN(C)C1 [Compound 70A]
1000

Next compound: CCCCSc1c[nH]nc1C1CN2CCC1CC2 (stereo not shown) [Compound 49A]
126

Next compound: CN1CCC=C(c2n[nH]cc2SCCCC(F)(F)F)C1 [Compound 22B]
501

Next compound: CN1CCC=C(c2n[nH]cc2C#CCCCC2CCCCC2)C1 [Compound 45E]
1580

More entries:
// query Ki value for entry CCCCCCCOc1c[nH]nc1C1=CCCN(C)C1 [Compound 33E]
1000

Next compound: CN1CCC=C(c2n[nH]cc2SCc2ccccc2)C1 [Compound 22N]
398

Next compound: C=CCCCSc1c[nH]nc1C1=CCCN(C)C1 [Compound 22L]
794

Next compound: CCCCCCOc1c[nH]nc1C1=CCCN(C)C1 [Compound 33B]
1000

Next compound: CCCCCSc1c[nH]nc1C1=CCCN(C)C1 [Compound 22G]
200

Next compound: `CCCCNc1c[nH]nc1C1=CCCN(C)C1`
7940

Next compound: CN1CCC=C(c2n[nH]cc2SCCC=C(F)F)C1 [Compound 22J]
631

Next compound: CCCCOc1c[nH]nc1C1=CCCN(C)C1 [Compound 33C]
1260

Next compound: CCCSc1c[nH]nc1C1=CCCN(C)C1 [Compound 22E]
398

Next compound: CN1CCC=C(c2n[nH]cc2SCCC#N)C1 [Compound 22R]
12600

Next compound: CN1CCC=C(c2n[nH]cc2SCCCCCSc2c[nH]nc2C2=CCCN(C)C2)C1 [Compound 22C]
251

Next compound: FC(F)=CCCSc1c[nH]nc1C1CN2CCC1CC2 (stereo not shown) [Compound 49I]
316

Next compound: CCCCCSc1c[nH]nc1C1CN2CCC1CC2 (stereo not shown) [Compound 49B]
158

Next compound: C=CCSc1c[nH]nc1C1=CCCN(C)C1 [Compound 22Q]
794

Next compound: CSc1c[nH]nc1C1=CCCN(C)C1 [Compound 22A]
1580

Next compound: CCCCCCC=Cc1conc1C1=CCCN(C)C1 [Compound 68B]
5010

----------
# Tested system: Muscarine M4 (GPCR-A-MA-ACH M4) (Homo sapiens, UniProt P08173)
# Construct: expressed in transfected cells; host or cells: CHO cells
# Sequence (P08173 whole entry): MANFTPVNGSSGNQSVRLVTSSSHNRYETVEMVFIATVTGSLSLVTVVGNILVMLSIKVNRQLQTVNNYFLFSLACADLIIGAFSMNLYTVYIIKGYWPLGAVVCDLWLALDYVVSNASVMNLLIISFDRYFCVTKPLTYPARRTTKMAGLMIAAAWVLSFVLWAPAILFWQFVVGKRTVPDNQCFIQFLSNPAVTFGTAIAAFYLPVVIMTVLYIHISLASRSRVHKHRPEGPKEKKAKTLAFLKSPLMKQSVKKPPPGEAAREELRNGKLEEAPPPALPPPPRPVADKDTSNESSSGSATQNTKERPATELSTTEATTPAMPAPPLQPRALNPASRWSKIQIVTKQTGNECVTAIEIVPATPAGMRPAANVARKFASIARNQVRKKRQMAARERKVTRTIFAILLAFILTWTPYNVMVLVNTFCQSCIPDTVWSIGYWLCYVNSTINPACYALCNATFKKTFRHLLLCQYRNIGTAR
# Assay summary: Muscarine M4 receptor binding, 3H-Oxotremorine
# Settings: human M4, CHO cells; receptor binding, ligand 6 nM, 30 min/25° C.; read-out: RB Musc. M4 3H-Oxotremorine pKi (converted)
Reported metric: log10 Ki (log10 of the value in nM)
In our notation, the value equals log10 of Ki in nM.

See these solved cases before continuing.
// query log10 Ki value for entry CN1CCC=C(c2n[nH]cc2SCCCCCSc2c[nH]nc2C2=CCCN(C)C2)C1 [Compound 22C]
2.20

Next compound: CCCCCCSc1nc[nH]c1C1=CCCN(C)C1 [Compound 76B]
3.00

Next compound: CCCCCSc1c[nH]nc1C1=CCCN(C)C1 [Compound 22G]
2.30

Next compound: CN1CCC=C(c2n[nH]cc2SCCC=C(F)F)C1 [Compound 22J]
1.80

Next compound: CC(C)CCSc1c[nH]nc1C1=CCCN(C)C1 [Compound 22S]
2.20

Next compound: C=CCCCOc1c[nH]nc1C1=CCCN(C)C1 [Compound 33F]
2.50

Next compound, please.
// query log10 Ki value for entry CCCCSc1conc1C1=CCCN(C)C1 [Compound 66A]
1.90
